Entry source: PubChem BioAssay (NCI)

# Test system: HCT-15 colon
# TEST DETAILS: NCI-60 one-dose screen, 48 h (100 = growth as untreated, 0 = no growth, -100 = all killed)
# CONDITION INFO: 10 µM unless noted
The panel holds about 83,000 compounds, 20% with a hit somewhere; the sample as a whole holds those more often.
MEASUREMENT TYPE: growth (%)
Give bare numbers, in %.

MOLECULE | MEASURED VALUE
C=CCn1c(C)nc2cc(Nc3nc(N4CCOCC4)nc4nc[nH]c34)ccc21 | 90.9
COc1ccc(C2C3=C(COC3=O)N(CCO)c3cc(OC)c(OC)cc32)cc1 (configuration not stated) | 98.9
CCCCn1cnc(-c2cc(-c3ccccc3)cc(C(F)(F)F)c2)n1 | 104
COc1ccc2nc(NC(=O)/C(=C/c3cc(OC)c(OC)c(OC)c3)c3ccc(OC)c(OC)c3)sc2c1 | 100
CCSc1ccc([C@@H]2[C@@H](N)C(=O)N2c2cc(OC)c(OC)c(OC)c2)cc1 | 19.9
Cc1cc(-c2nnc(/C=C/c3ccc4c(c3)OCO4)o2)n[nH]1 | 44.3

Now take the following molecule into account.
Could you share which growth value was measured for O=C(CN1CCN(c2ccccc2)CC1)N1CCN(c2nnc(-c3ccc(Cl)cc3)c(-c3ccc(Cl)cc3)n2)CC1 ?
45.4

###

# Tested on: UACC-257 melanoma
# TEST DETAILS: NCI-60 one-dose screen, 48 h (100 = growth as untreated, 0 = no growth, -100 = all killed)
# CONDITION INFO: 10 µM unless noted
# Description: Cells are grown in 96 well plates and exposed to the test compound for 48 hours. Compounds are tested at a single concentration, which is 10^-5 M for most compounds. The reported endpoint is percent growth (GI% or GIPRCNT), where numbers from 0 - 100% represent growth inhibition, and numbers from -100% - 0 represent cell death. For example, a value of 40 represents 60% growth inhibition. A value of 0 means no net growth occurred over the course of the experiment. […]
This is part of a sample that, as a whole, favours compounds with a hit. Of some 83,000 tested, about 20% had one in any assay.
MEASUREMENT TYPE: growth (%)
Give bare numbers, in %.

Consider the worked cases shown below.
COMPOUND | growth / %
COc1ccc(NC(=O)/C=C/c2ccc(Cl)c(Cl)c2)cn1 | 79.9
CCOC(=O)c1ccccc1SC(C[N+](=O)[O-])c1ccccc1 (centres undefined) | 84.4
CCN(CC)c1ccc2nc3c4ccccc4c(=O)cc-3n(-c3ccccc3)c2c1 | -15.8
C#CC[C@@H]1C[C@]2(C)[C@H]3CC=C4[C@H]5CC(C)(C)CC[C@]5(C(=O)NCCCCN)CC[C@@]4(C)[C@]3(C)CC[C@H]2C(C)(C)[C@H]1OC(C)=O | 111
CCCC(CCC)NCC(O)c1cc(-c2ccc(C(F)(F)F)cc2)nc(C(F)(F)F)c1 (centres undefined) | -76.9

Please supply growth for each of the following items, keeping them in order.
1. Cc1ccc(NC(=O)c2nc(S(C)(=O)=O)oc2-c2ccc(F)cc2)cc1Nc1ccc2ncn(C)c(=O)c2c1
2. CCCCCCCCCCCCCC(=S)NCCCC[C@H](NC(=O)OCc1ccccc1)C(=O)Nc1ccccc1
3. C#CC[C@@H]1C[C@]2(C)[C@H]3CC=C4[C@H]5[C@@H](C)[C@H](C)CC[C@]5(C(=O)NCCCN5CCN(CCCN)CC5)CC[C@@]4(C)[C@]3(C)CC[C@H]2C(C)(C)[C@H]1OC(C)=O
4. CCN(CC)CCNc1c(C)cc(CO)c(Cl)c1C
5. COc1ccc(NC(=O)/C=C/c2ccc(NC(=O)N3CCCC3)cc2)cn1

[82.5, 69.1, -32.1, 96.7, 103]

State recorded growth for all listed compounds.
1. Cc1cc(C)c2c(n1)sc1c(Nc3ccc(Cl)cc3Cl)ncnc12
2. O=C(Nc1ccc(Br)cc1)Nc1ccccc1Cl
3. C=C(C)C1CCC2(C(=O)O)CCC3(C)C(CCC4C5(C)CCC(O)C(C)(C)C5CCC43C)C12 (centres undefined)
4. C/C(=N\OC(=O)Nc1cccc(Cl)c1)c1ccccc1
5. C#CC[C@@H]1C[C@]2(C)[C@H]3CC=C4[C@H]5[C@@H](C)[C@H](C)CC[C@]5(C(=O)NCCCCN)CC[C@@]4(C)[C@]3(C)CC[C@H]2C(C)(C)[C@H]1OC(C)=O
6. C/C=C(\C)C(C(=O)NC1CCCCC1)N(C(=O)C1CCc2cc(F)ccc2O1)c1ccc([N+](=O)[O-])cc1 (centres undefined)

1. 36.4
2. 88
3. -17.2
4. 104
5. 115
6. 93

I need growth for every entry listed below, if you could help.
1. C=CCn1c(SCC(=O)Nc2ccc(C(=O)/C=C/c3ccccc3)cc2)nnc1-c1ccc(OC)c(OC)c1
2. CCN(CC)C(Cl)=Nc1ccc(Cl)cc1
3. Cc1cc(N=Nc2ccc(-c3ccc(N=Nc4ccc(O)c(C(=O)O)c4)cc3)cc2)c(N)c(N=Nc2ccc(C(=O)O)cc2)c1N
4. CCCCn1c(C)nc2ccc(Nc3nc(Cl)nc4nc[nH]c34)cc21
5. COc1ccc2[nH]c(O)c(/C=c3/ccc4c(c3)N=C(c3ccc(F)cc3)N=4)c2c1
6. COc1ccc(-c2cn(-c3cccc(C(=O)/C=C/c4ccc(O)c(OC)c4)c3)c(=O)[nH]2)cc1
7. COc1cccc(CC(C)=C(c2ccc(OCCCN(C)C)cc2)c2ccc(OCCCN(C)C)cc2)c1
8. O=C(OCc1ccc2c(Cl)cc(Cl)c(O)c2n1)c1cc2ccccc2[nH]1

1. 79.9
2. 98.8
3. 110
4. 92.5
5. 82.5
6. 40.3
7. -82.3
8. -72.4

###

For each of the compounds below, state its growth.
# Test system: OVCAR-8 ovarian
# TEST DETAILS: NCI-60 one-dose screen, 48 h (100 = growth as untreated, 0 = no growth, -100 = all killed)
# CONDITION INFO: 10 µM unless noted
About 83,000 compounds went through this panel and 20% of them were active in at least one assay; those are over-represented in the sample as a whole.
One number for each entry, in %.

COMPOUND | UNITS TEXT | MEASURED VALUE
O=C(NO)c1ccc(NCc2csc3ccccc23)cc1 | % | 42

Record growth for all entries; do not skip any.
1. c1ccc(-c2[nH]c3ccccc3c2-c2ccccc2)cc1
2. O=C(Nc1ccc2[nH]c3ccccc3c2c1)c1ccccc1Cl

92
72.4

Hi, could you look up growth for each item in my list?
1. COCCCNCC(=O)Nc1c(C)cccc1C
2. Clc1ncnc2scc(C3COc4ccccc4O3)c12 (configuration not stated)
3. Cc1ccc(C2CC(c3cccs3)=NN2c2ccc(S(N)(=O)=O)cc2)s1 (configuration not stated)
4. O=C(/C=C/c1cc([N+](=O)[O-])ccc1Cl)c1ccccc1
5. O=C(Nc1ccc(Oc2ccc(NC(=O)Nc3ccccc3Cl)cc2)cc1)Nc1ccccc1Cl
6. c1ccc(C(CC2=NCCCN2)c2ccccc2)cc1
7. CCN(C)CCCOc1ccc(/C(=C(\C)Cc2cccc(OC)c2)c2ccc(OC(C)=O)cc2)cc1
8. COc1cc2nccc(Oc3ccc(NC(=O)C4(C(=O)Nc5c(F)cc(F)cc5F)CC4)cc3)c2cc1Oc1ccc(N)cn1

1: 107; 2: 92.8; 3: 83.2; 4: 96.3; 5: 56.1; 6: 101; 7: 105; 8: 69.7

Look up growth: COC1=CC(c2ccc[nH]2)=N/C1=C\c1[nH]c(C)c(C(=O)CCCCCCCCC(=O)O[C@H]2CC[C@H]3C4CCc5cc(O)ccc5C4CC[C@]23C)c1C (some centres not stated)
12.2

###

Kindly supply the reported growth values for the records listed here.
# Test system: SN12C renal
# TEST DETAILS: NCI-60 one-dose screen, 48 h (100 = growth as untreated, 0 = no growth, -100 = all killed)
# CONDITION INFO: 10 µM unless noted
Compounds without any hit were thinned out: in the full panel of roughly 83,000, 20% have a hit.
Give bare numbers, in %.

Below, 2 compounds whose answers are already recorded.
COMPOUND | SUBJECT OF TEST | growth [%]
CCCN(CCC)CC(O)COc1ccccc1C(=O)Nc1ccccc1 (stereo not drawn) | SN12C renal | 81.6
COc1cc(C2CC(c3cccc(Nc4ccnc5cc(Cl)ccc45)c3)=NN2c2ccccc2)cc(OC)c1OC (stereo not drawn) | SN12C renal | 68.1

From here, focus on the item given below.
State the recorded growth for this entry: Clc1ccc2c(c1)-n1cccc1C(c1ccc3ccccc3c1)=NC2
124

###

# Test system: K-562 leukemia
# TEST DETAILS: NCI-60 one-dose screen, 48 h (100 = growth as untreated, 0 = no growth, -100 = all killed)
# CONDITION INFO: 10 µM unless noted
This is part of a sample that, as a whole, favours compounds with a hit. Of some 83,000 tested, about 20% had one in any assay.
Kindly supply the reported growth values for the records listed here.
Answers are plain numbers, in %.

COMPOUND | UNITS TEXT | MEASURED VALUE
Brc1ccccc1Cn1c(-c2cncs2)nc2ccccc21 | % | 74.6
Cc1ccc(Nc2nc(NCCO)c3ccccc3n2)cc1C | % | 11.1
COC(=O)c1ccc(NC(N)=NCCC(C)(C)c2ccc(C(F)(F)F)cc2)nc1 | % | 1.24

For each of the compounds below, note its growth.
1. COc1cc(CN2CCO[C@H](COc3cccc(F)c3)C2)ccc1Cl
2. O=C(Nc1ccc(OS(=O)(=O)c2ccc(F)cc2)cc1)C12CC3CC(CC(C3)C1)C2

[21.1, 27.5]

# per-item lookup of growth; items listed below
1. Clc1ccc(Nc2ncnc3c2sc2ncccc23)c(Cl)c1
2. CC(COC(=O)c1ccccc1)N1CC2CCC(C1)O2 (stereo not given)
3. COc1cc(/C=C/C(=O)c2c(C)nc3ccccc3c2C)ccc1OCCCOc1cc2c(cc1OC)C(=O)N1CCC[C@H]1C=N2
4. CCNC(=S)N(Cc1ccccc1)Cc1ccccc1
5. Oc1[nH]c2ccccc2c1/C=c1/ccc2c(c1)N=C(c1ccc(C(F)(F)F)cc1)N=2
6. CC(C)CC(NC(=O)C(CCCN=C(N)N)NC(=O)OCc1ccccc1)C(=O)NC(CNC(=O)/C=C/c1ccccc1)C(C)C (stereo not given)
7. O=C1C(Cl)=C(N/N=c2/[nH][nH]/c(=N/NC3=C(Cl)C(=O)c4ccccc4C3=O)c3ccccc23)C(=O)c2ccccc21
8. CCc1ccc(Nc2cc(C)c3ccc(O)cc3n2)cc1

1: 43.4; 2: 97.3; 3: -10.8; 4: 100; 5: 14.6; 6: 92.3; 7: 9.7; 8: 20.3

Consider the following items and state reported growth for each.
1. COC(=O)C(CCC(=O)CCl)N1C(=O)c2ccccc2C1=O (stereo not given)
2. CCN(CC)C(Cl)=Nc1ccc(Cl)cc1
3. CCOC(CN1CCN(CC(C)C(=O)c2ccccc2)CC1)c1ccccc1 (stereo not given)
4. C/C(=N\NC(=S)Nc1ccccc1)c1ccccn1
5. COc1cc(C(=O)/C=C/c2cn(-c3ccccc3)nc2-c2cccc(Nc3ccnc4cc(Cl)ccc34)c2)cc(OC)c1OC
6. CCOC(=O)Nc1ccc2nc(-c3cscn3)[nH]c2c1
7. COC(=O)c1cc(Cl)cc([N+](=O)[O-])c1O
8. O=C(C=P(c1ccccc1)(c1ccccc1)c1ccccc1)CCl

[28.6, 121, 115, 23.6, 59.5, 19.1, 68.9, -6.42]

Would you mind listing growth for each of the following compounds?
1. CCN(CC)CCCNc1cccc2c(C)cc(OC)nc12
2. CCCCCCCCNC(C)C(O)c1ccc(SC(C)C)cc1 (stereo not given)
3. CCOC(=O)C(=CNc1ccccc1Cl)C(=O)OCC
4. COc1ccc(-c2nn(-c3cccc(Cl)c3)cc2/C=C2\C(=N)N(c3ccccc3)N=C2N)cc1
5. COC(=O)/C=C/c1cc(OC(C)=O)c2c(c1)[C@@H](C(=O)OC)[C@H](c1ccc(OC(C)=O)c(OC(C)=O)c1)O2
6. COc1cc2c(cc1OCCCOc1cc3c(cc1OC)C(=O)N1CCC[C@H]1C=N3)C=CC(C)(C)O2
7. CC(C)N=C1CCCC1C(=S)SSC(=S)C1CCCC1=NC(C)C (stereo not given)

1. 92.3
2. -59.8
3. 54.3
4. 1.77
5. 8.05
6. 71.2
7. 34.9

Each compound below has a recorded value; state its growth.
1. C#CC[C@@H]1C[C@]2(C)[C@H]3CC=C4[C@H]5CC(C)(C)CC[C@]5(C(=O)NCCCCN)CC[C@@]4(C)[C@]3(C)CC[C@H]2C(C)(C)[C@H]1OC(C)=O
2. COc1ccc(C2CC(c3cccc(Nc4ccnc5cc(Cl)ccc45)c3)=NN2c2ccc(Cl)cc2)cc1 (stereo not given)

1: -30; 2: 12.8
